# assay_remarks: pharmacokinetics after IV and IP administration
# Type: in vivo, Balb/c mice
# measurement_context: Balb/c, mouse, plasma; IV 3 mg/kg, 24.0 h; read-out: Plasma Concentration, Mean IV
readout_name: concentration at 24 h

Query: What value of measured concentration at 24 h is listed for Cc1cc(NC(=O)c2nc3[nH]c4c(c(=O)n3n2)CCC4)c(C)cc1NC(=O)CCc1nnc(-c2ccccc2)o1 [113B7] ?
Reply: 541 ng/mL

###

# assay_remarks: pharmacokinetics after IV and IP administration
# Assay type: in vivo, Balb/c mice
# measurement_context: Balb/c, mouse, plasma; IP 30 mg/kg; read-out: T1/2 (converted)
readout_name: half-life (h)
Report the value in h with no unit label.

Query: What value of measured half-life is listed for Cc1cc(NC(=O)c2nc3[nH]c4c(c(=O)n3n2)CCC4)c(C)cc1NC(=O)CCc1nnc(-c2ccccc2)o1 ?
Reply: 9.42

###

# assay_remarks: pharmacokinetics after IV and IP administration
# Type: in vivo, Balb/c mice
# measurement_context: Balb/c, mouse, plasma, iv, 3 mg/kg, IV 3 mg/kg; read-out: AUC0-int (second line)
readout_name: AUC (µg·h/mL)
Report the value in µg·h/mL with no unit label.

Query: What value of measured AUC is listed for Cc1cc(NC(=O)c2nc3[nH]c4c(c(=O)n3n2)CCC4)c(C)cc1NC(=O)CCc1nnc(-c2ccccc2)o1 [113B7] ?
Reply: 124

###

# assay_remarks: pharmacokinetics after IV and IP administration
# Assay type: in vivo, Balb/c mice
# measurement_context: Balb/c, mouse, plasma; IP 30 mg/kg
readout_name: Cmax (µg/mL)
Report the value in µg/mL with no unit label.

Query: What value of measured Cmax is listed for Cc1cc(NC(=O)c2nc3[nH]c4c(c(=O)n3n2)CCC4)c(C)cc1NC(=O)CCc1nnc(-c2ccccc2)o1 ?
Reply: 98.2

###

# assay_remarks: pharmacokinetics after IV and IP administration
# Format: in vivo, Balb/c mice
# measurement_context: Balb/c, mouse, plasma; IP 30 mg/kg, 24.0 h; read-out: Plasma Concentration, Mean IP
readout_name: concentration at 24 h (ng/mL)
Report the value in ng/mL with no unit label.

Query: What value of measured concentration at 24 h is listed for Cc1cc(NC(=O)c2nc3[nH]c4c(c(=O)n3n2)CCC4)c(C)cc1NC(=O)CCc1nnc(-c2ccccc2)o1 ?
Reply: 15100

###

Overview of recorded pKd for various compounds
# measured_target: MDA-9 PDZ12 tandem domain (PDZ1) (Homo sapiens, UniProt O00560)
# Construct: the MDA-9/Syntenin construct used for the screen contains both PDZ domains; made in house
# assay_remarks: NMR [15N,1H] HSQC chemical shift change and titration binding
# measurement_context: NMR titration following backbone amide of residue 147; read-out: Kd values
# pKd is unitless: minus log10 of the molar concentration; print number only

Below, each entry is followed by its recorded pKd result.
O=C(Nc1ccc(O)c(F)c1)c1nc2[nH]c3c(c(=O)n2n1)CCC3 [112F12] :: 3.78
Cc1cc(=O)n2nc(C(=O)Nc3cccc(Cl)c3)nc2[nH]1 [cmpd10] :: 3.82
Nc1ccc(NC(=O)c2nc3[nH]c4c(c(=O)n3n2)CCC4)cc1 [112G11] :: 3.58
Cc1cc(=O)n2nc(C(=O)Nc3ccc(N)cc3)nc2[nH]1 [112E7] :: 3.02
Cc1cc(=O)n2nc(C(=O)Nc3cc(Cl)c(N)cc3Cl)nc2[nH]1 [112G4] :: 4.46
Cc1cc(=O)n2nc(C(=O)Nc3cc(Cl)c(O)c(Cl)c3)nc2[nH]1 [112G1] :: 4.24

Query: What value of measured pKd is listed for O=C(Nc1ccc(O)c(Cl)c1)c1nc2[nH]c3c(c(=O)n2n1)CCC3 [112G3] ?
Reply: 3.92

Query: What value of measured pKd is listed for Cc1cc(=O)n2nc(COc3ccccc3)nc2[nH]1 [30A9] ?
Reply: 3.71

Query: What value of measured pKd is listed for Cc1cc(NC(=O)c2nc3[nH]c4c(c(=O)n3n2)CCC4)c(C)cc1NC(=O)CCc1nnc(-c2cccc(C(F)(F)F)c2)o1 [112H9] ?
Reply: 4.42

Query: What value of measured pKd is listed for Cc1c(C)c(NC(=O)c2nc3[nH]c4c(c(=O)n3n2)CCC4)c(C)c(C)c1N [113B8] ?
Reply: 3.82

Query: What value of measured pKd is listed for Cc1cc(=O)n2nc(C(=O)Nc3ccc(O)cc3)nc2[nH]1 [112D11] ?
Reply: 3.61

###

# measured_target: MDA-9 PDZ12 tandem domain (PDZ1) (Homo sapiens)
# Construct: the MDA-9/Syntenin construct used for the screen contains both PDZ domains; made in house
# Sequence (O00560 110-274): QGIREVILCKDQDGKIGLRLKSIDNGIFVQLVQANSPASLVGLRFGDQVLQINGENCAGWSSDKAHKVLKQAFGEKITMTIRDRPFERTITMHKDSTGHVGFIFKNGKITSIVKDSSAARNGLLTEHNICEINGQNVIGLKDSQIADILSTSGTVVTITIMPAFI
# assay_remarks: NMR [15N,1H] HSQC chemical shift change and titration binding
# measurement_context: estimated by NMR titration in 2D HSQC experiments (Table 4); read-out: Kd
readout_name: Kd (µM)
Report the value in µM with no unit label.

Query: What value of measured Kd is listed for Cc1cc(NC(=O)c2nc3[nH]c4c(c(=O)n3n2)CCC4)c(C)cc1NC(=O)CCc1nnc(-c2cccc(C(F)(F)F)c2)o1 ?
Reply: 38

###

# assay_remarks: pharmacokinetics after IV and IP administration
# Assay type: in vivo, Balb/c mice
# measurement_context: Balb/c, mouse, intravenous; intraperitoneal; in each route: 3.0 mg/Kg IV and 30.0 mg/Kg IP, mice, serum; read-out: T1/2 (very slow clearance)
readout_name: half-life

Query: What value of measured half-life is listed for Cc1cc(NC(=O)c2nc3[nH]c4c(c(=O)n3n2)CCC4)c(C)cc1NC(=O)CCc1nnc(-c2ccccc2)o1 [113B7] ?
Reply: > 9 h

###

# assay_remarks: pharmacokinetics after IV and IP administration
# Format: in vivo, Balb/c mice
# measurement_context: Balb/c, mouse, plasma; IV 3 mg/kg; read-out: T1/2 (converted)
readout_name: half-life

Query: What value of measured half-life is listed for Cc1cc(NC(=O)c2nc3[nH]c4c(c(=O)n3n2)CCC4)c(C)cc1NC(=O)CCc1nnc(-c2ccccc2)o1 ?
Reply: 5.06 h

###

# assay_remarks: pharmacokinetics after IV and IP administration
# Assay type: in vivo, Balb/c mice
# measurement_context: Balb/c, mouse, plasma; IV 3 mg/kg, 12.0 h; read-out: Plasma Concentration, Mean IV
readout_name: concentration at 12 h (µg/mL)
Report the value in µg/mL with no unit label.

Query: What value of measured concentration at 12 h is listed for Cc1cc(NC(=O)c2nc3[nH]c4c(c(=O)n3n2)CCC4)c(C)cc1NC(=O)CCc1nnc(-c2ccccc2)o1 [113B7] ?
Reply: 3.36

###

# assay_remarks: pharmacokinetics after IV and IP administration
# Type: in vivo, Balb/c mice
# measurement_context: Balb/c, mouse, plasma; IV 3 mg/kg, 2.00 h; read-out: Plasma Concentration, Mean IV
readout_name: concentration at 2 h (ng/mL)
Report the value in ng/mL with no unit label.

Query: What value of measured concentration at 2 h is listed for Cc1cc(NC(=O)c2nc3[nH]c4c(c(=O)n3n2)CCC4)c(C)cc1NC(=O)CCc1nnc(-c2ccccc2)o1 [113B7] ?
Reply: 11600

###

# assay_remarks: pharmacokinetics after IV and IP administration
# Assay type: in vivo, Balb/c mice
# measurement_context: Balb/c, mouse, plasma; IV 3 mg/kg, 0.250 h; read-out: Plasma Concentration, Mean IV
readout_name: concentration at 0.25 h (ng/mL)
Report the value in ng/mL with no unit label.

Query: What value of measured concentration at 0.25 h is listed for Cc1cc(NC(=O)c2nc3[nH]c4c(c(=O)n3n2)CCC4)c(C)cc1NC(=O)CCc1nnc(-c2ccccc2)o1 [113B7] ?
Reply: 29500

###

Overview of recorded Binding affinity ranking for various compounds
# measured_target: MDA-9 PDZ12 tandem domain (PDZ1) (Homo sapiens)
# Construct: the MDA-9/Syntenin construct used for the screen contains both PDZ domains; made in house
# assay_remarks: NMR [15N,1H] HSQC chemical shift change and titration binding
# measurement_context: chemical shift change (DPPM) of backbone amide of residue 147, 50 μM PDZ12, compound at 1:1 molar ratio

Below, each entry is followed by its recorded Binding affinity ranking result.
Cc1cc(=O)n2nc(C(=O)Nc3ccc(O)c(F)c3)nc2[nH]1 [112G2] :: 4 (4 for DPPM 0.06-0.08)
Cc1cc(=O)n2nc(C(=O)Nc3cc(Cl)c(N)cc3Cl)nc2[nH]1 [112G4] :: 6 (6 for DPPM above 0.1)
O=C(Nc1ccc(O)c(Cl)c1)c1nc2[nH]c3c(c(=O)n2n1)CCC3 [112F10] :: 4 (4 for DPPM 0.06-0.08)
Cc1cc(NC(=O)c2nc3[nH]c4c(c(=O)n3n2)CCC4)c(C)cc1NC(=O)CCc1nnc(-c2ccccc2)o1 [113B7] :: 4 (4 for DPPM 0.06-0.08)
Cc1cc(=O)n2nc(C(=O)Nc3cc(Cl)c(O)c(Cl)c3)nc2[nH]1 [112G1] :: 6 (6 for DPPM above 0.1)
Cc1cc(=O)n2nc(C(=O)Nc3ccc4c(c3)OCO4)nc2[nH]1 [cmpd9] :: 3 (3 for DPPM 0.04-0.06)

Query: For the record Cc1[nH]c2nc(C(=O)NCc3ccccc3)nn2c(=O)c1C [cmpd5] , what value of Binding affinity ranking is listed for MDA-9 PDZ12 tandem domain (PDZ1) (Homo sapiens)?
Reply: 2 (2 for DPPM 0.02-0.04)

Query: For the record O=C(Nc1cc(Cl)c(O)c(Cl)c1)c1nc2[nH]c3c(c(=O)n2n1)CCC3 [112F11] , what value of Binding affinity ranking is listed for MDA-9 PDZ12 tandem domain (PDZ1) (Homo sapiens)?
Reply: 5 (5 for DPPM 0.08-0.1)

Query: For the record O=C(Nc1ccc(O)c(F)c1)c1nc2[nH]c3c(c(=O)n2n1)CCC3 [112F12] , what value of Binding affinity ranking is listed for MDA-9 PDZ12 tandem domain (PDZ1) (Homo sapiens)?
Reply: 2 (2 for DPPM 0.02-0.04)

Query: For the record Cc1cc(NC(=O)c2nc3[nH]c4c(c(=O)n3n2)CCC4)c(C)cc1NC(=O)CCc1nnc(-c2ccsc2)o1 [113B11] , what value of Binding affinity ranking is listed for MDA-9 PDZ12 tandem domain (PDZ1) (Homo sapiens)?
Reply: 3 (3 for DPPM 0.04-0.06)

Query: For the record Cc1cc(NC(=O)c2nc3[nH]c4c(c(=O)n3n2)CCC4)c(C)cc1NC(=O)CCc1nnc(-c2cccc(C(F)(F)F)c2)o1 [112H9] , what value of Binding affinity ranking is listed for MDA-9 PDZ12 tandem domain (PDZ1) (Homo sapiens)?
Reply: 2 (2 for DPPM 0.02-0.04)

Query: For the record O=c1c2c([nH]c3nc(NCc4cccs4)nn13)CCC2 [cmpd3] , what value of Binding affinity ranking is listed for MDA-9 PDZ12 tandem domain (PDZ1) (Homo sapiens)?
Reply: 1 (1 for DPPM 0.00-0.02)

Query: For the record O=c1c2c([nH]c3nc(COc4ccccc4)nn13)CCC2 [cmpd11] , what value of Binding affinity ranking is listed for MDA-9 PDZ12 tandem domain (PDZ1) (Homo sapiens)?
Reply: 5 (5 for DPPM 0.08-0.1)

Query: For the record O=C(Nc1ccc(O)cc1)c1nc2[nH]c3c(c(=O)n2n1)CCC3 [112E12] , what value of Binding affinity ranking is listed for MDA-9 PDZ12 tandem domain (PDZ1) (Homo sapiens)?
Reply: 1 (1 for DPPM 0.00-0.02)
